- procedure.details: AUC (0 to infinity) in rat at 10 mg/kg, po
- Assay type: ADME, organism-based
- Set-up: time infinity, dose 10 mg/kg, route oral
- experimental.setup: plasma
parameter: AUC(0-inf) (ng·h/mL)
The reply should contain only the number, in ng·h/mL.

Given O=S1(=O)N(CC[C@@H]2CNCCO2)c2ccccc2N1c1ccccc1F , state its recorded AUC(0-inf).
1320

* * *

- procedure.details: Volume of distribution at steady state in rat at 2 mg/kg, iv
- Format: ADME, organism-based
- Parameters: dose 2 mg/kg, route intravenous
- experimental.setup: in vivo, read-out: Vdss
parameter: Vd (L/kg)
The reply should contain only the number, in L/kg.

Given O=S1(=O)N(CC[C@@H]2CNCCO2)c2ccccc2N1c1ccccc1F , state its recorded Vd.
5
